Reference source: ChEMBL document CHEMBL2406981

system: Escherichia coli; assay: Antimicrobial activity against Escherichia coli MTCC 724; assay type: functional
MIC for assorted molecules
Report as a plain number; the unit µg/mL is understood.

1) COc1ccc(C2=NN(c3ccccc3)C(c3noc(-c4ccccc4)n3)C2)cc1 (configuration not stated) : 25

Query string: Using the record for COc1ccc(-c2nc(C3CC(c4ccc(Cl)cc4)=NN3c3ccccc3)no2)cc1OC (configuration not stated) , state its measured MIC.
Result string: 20

Query string: Please supply the value of reported MIC for the item Oc1ccc(C2=NN(c3ccccc3)C(c3noc(-c4ccc(Cl)cc4)n3)C2)cc1 (configuration not stated)
Result string: 20

Query string: Given the molecule COc1ccccc1-c1nc(C2CC(c3ccccc3)=NN2c2ccccc2)no1 (configuration not stated) , write its reported MIC.
Result string: 35

Query string: Consider the molecule N/C(=N\O)C1CC(c2ccc(Cl)cc2)=NN1c1ccccc1 (configuration not stated) and give its recorded MIC.
Result string: 40

Query string: Dear colleague, please send me the reported MIC for COc1ccc(C2=NN(c3ccccc3)C(c3noc(-c4ccccc4OC)n3)C2)cc1 (configuration not stated) when you can.
Result string: 25

Query string: Fill in MIC for record COc1ccc(C2=NN(c3ccccc3)C(c3noc(-c4ccc(Cl)cc4)n3)C2)cc1 (configuration not stated)
Result string: 25
